biological target: VIM-1 (Pseudomonas aeruginosa (strain ATCC 15692 / DSM 22644 / CIP 104116 / JCM 14847 / LMG 12228 / 1C / PRS 101 / PAO1)); assay: biochemical; conditions: CCF2-FA substrate, 2 hours at 25° C
pIC50: −log10 of the molar value.

mol	pIC50
NC(=O)c1ccc(-c2ccc(S(=O)(=O)C3CNC3)c(S(N)(=O)=O)c2-c2nn[nH]n2)c2nc(N)sc12	9.89
NCCS(=O)(=O)c1ccc(-c2cccc3cc(C(N)=O)[nH]c23)c(-c2nn[nH]n2)c1S(N)(=O)=O	9.67
Nc1nc2cccc(-c3ccc(S(=O)(=O)C4CCN(CCO)CC4)c(S(N)(=O)=O)c3-c3nn[nH]n3)c2[nH]1	9.44
NCCN1CC(S(=O)(=O)c2ccc(-c3cccc4[nH]c(N)nc34)c(-c3nn[nH]n3)c2S(N)(=O)=O)C1	9.37

---

Efflux ratio by entry:
tested on: P. aeruginosa expressing IMP-1, efflux+ (MB9798); type: cell-based, Pseudomonas aeruginosa; conditions: ratio MITC95 PA_9798/MITC95 PA_9799
property: Efflux ratio

compound	data_value
NS(=O)(=O)c1c(S(=O)(=O)C2CNC2)ccc(-c2ccnc3[nH]nnc23)c1-c1nn[nH]n1	4.00
NS(=O)(=O)c1c(S(=O)(=O)C2CNC2)ccc(-c2cnc(N3CCCC3)s2)c1-c1nnn[nH]1.O=C(O)C(F)(F)F	127.96
NCCS(=O)(=O)c1ccc(C2CCNc3ccccc32)c(-c2nn[nH]n2)c1S(N)(=O)=O (stereo not drawn)	63.98
CS(=O)(=O)c1ccc([C@H]2CC[C@H](N)CC2)c(-c2nnn[nH]2)c1S(N)(=O)=O	16.00
N#Cc1cc(-c2ccc(S(=O)(=O)C3CNC3)c(S(N)(=O)=O)c2-c2nnn[nH]2)c2[nH]c(N)nc2c1	1.00
Nc1nc2c(-c3ccc(S(=O)(=O)CCN4CCOCC4=O)c(S(N)(=O)=O)c3-c3nn[nH]n3)cccc2s1	2.00
NCCS(=O)(=O)c1ccc(-c2ccc(C(F)(F)F)c3sc(N)nc23)c(-c2nn[nH]n2)c1S(N)(=O)=O	4.00
NS(=O)(=O)c1c(S(=O)(=O)C2CNC2)ccc(-c2cccc3sc(C(=O)O)nc23)c1-c1nnn[nH]1	2.00
CS(=O)(=O)c1ccc([C@H]2CC[C@@H](N)CC2)c(-c2nnn[nH]2)c1S(N)(=O)=O	16.00
CSc1ccc(-c2ccc(C3CCNCC3)cc2)c(-c2nnn[nH]2)c1S(N)(=O)=O	64.00
Nc1nc2c(-c3ccc(S(=O)(=O)[C@@H]4CCNC4)c(S(N)(=O)=O)c3-c3nn[nH]n3)cccc2s1	1.00
NS(=O)(=O)c1cccc(-c2ccc(S(=O)(=O)C3CNC3)c(S(N)(=O)=O)c2-c2nn[nH]n2)c1	15.99
NC[C@H](O)CS(=O)(=O)c1ccc(-c2cccnc2N)c(-c2nn[nH]n2)c1S(N)(=O)=O	1.33
Nc1ncc(-c2ccc(S(=O)(=O)C3CNC3)c(S(N)(=O)=O)c2-c2nn[nH]n2)c2cccnc12	4.00
NC[C@@H](CO)S(=O)(=O)c1ccc(-c2cccc3nc(N)[nH]c23)c(-c2nn[nH]n2)c1S(N)(=O)=O	1.00

---

molecular target: UniProt:C7C422; assay: biochemical; format: biochemical; conditions: CCF2-FA substrate, 2 hours at 25° C; read-out: NDM-1 IC50
Sequence (C7C422 whole entry, looked up, species assumed): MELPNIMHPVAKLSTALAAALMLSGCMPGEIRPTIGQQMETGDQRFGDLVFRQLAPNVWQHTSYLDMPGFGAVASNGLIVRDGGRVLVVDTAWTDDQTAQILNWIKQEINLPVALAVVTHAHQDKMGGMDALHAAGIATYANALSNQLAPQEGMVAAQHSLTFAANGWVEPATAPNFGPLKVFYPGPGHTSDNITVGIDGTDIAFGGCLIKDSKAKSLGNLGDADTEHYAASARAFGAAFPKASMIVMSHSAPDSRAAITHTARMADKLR

compound	IC50 (nM)
N=C(N)Nc1ccccc1-c1ccc(S(=O)(=O)C2CNC2)c(S(N)(=O)=O)c1-c1nn[nH]n1 [Example 221]	5.13
COc1cc(-c2ccc(S(=O)(=O)CCN)c(S(N)(=O)=O)c2-c2nnn[nH]2)cnc1N.O=C(O)C(F)(F)F [Example 169, 2,2,2-trifluoroacetate]	6
CCn1c(N)nc2c(-c3ccc(S(=O)(=O)CCN)c(S(N)(=O)=O)c3-c3nn[nH]n3)cccc21 [Example 284]	0.289
Nc1nc2cccc(-c3ccc(S(=O)(=O)[C@H]4CC[C@H](N)CC4)c(S(N)(=O)=O)c3-c3nn[nH]n3)c2[nH]1 [Example 178]	0.275
NCCS(=O)(=O)c1ccc(-c2cncc(CO)c2)c(-c2nnn[nH]2)c1S(N)(=O)=O.O=C(O)C(F)(F)F [Example 143, 2,2,2-trifluoroacetate]	11.2
Cc1ccc(-c2ccc(S(=O)(=O)CCN)c(S(N)(=O)=O)c2-c2nn[nH]n2)c2nc(N)sc12 [Example 80]	0.0508

---

target: VIM-1 (Pseudomonas aeruginosa (strain ATCC 15692 / DSM 22644 / CIP 104116 / JCM 14847 / LMG 12228 / 1C / PRS 101 / PAO1)); assay: biochemical; conditions: CCF2-FA substrate, 2 hours at 25° C
pIC50: −log10 of the molar value.

mol	pIC50
NS(=O)(=O)c1c(S(=O)(=O)C2CCNCC2)ccc(-c2ccc(C3CCNCC3)cc2)c1-c1nnn[nH]1	9.50
Nc1nc2ccc(-c3ccc(S(=O)(=O)C4CNC4)c(S(N)(=O)=O)c3-c3nn[nH]n3)cn2n1	9.53
NCCS(=O)(=O)c1ccc(-c2cccc3nc(N)sc23)c(-c2nn[nH]n2)c1S(N)(=O)=O	9.87
NS(=O)(=O)c1c(S(=O)(=O)CCO)ccc(-c2cccc3c2ccc[n+]3[O-])c1-c1nn[nH]n1	9.68

---

molecular target: VIM-1 (Pseudomonas aeruginosa (strain ATCC 15692 / DSM 22644 / CIP 104116 / JCM 14847 / LMG 12228 / 1C / PRS 101 / PAO1), UniProt A0A0F7KYQ8); test: biochemical; settings: CCF2-FA substrate, 2 hours at 25° C
pIC50: −log10 of the molar value.
Measured pIC50, listed per entry for reference.

compound	pIC50
NCCS(=O)(=O)c1ccc(-c2cnc(N)c(C(=O)N[C@H]3CCNC3)c2)c(-c2nn[nH]n2)c1S(N)(=O)=O	8.45
Cn1cnc2cc(-c3ccc(S(=O)(=O)C4CNC4)c(S(N)(=O)=O)c3-c3nnn[nH]3)cnc21.O=C(O)C(F)(F)F [Example 103, 2,2,2-trifluoroacetate]	9.24
NS(=O)(=O)c1c(S(=O)(=O)C2CNC2)ccc(-c2cccc3[nH]ncc23)c1-c1nnn[nH]1.O=C(O)C(F)(F)F [Example 100, 2,2,2-trifluoroacetate]	9.48

---

test system: P. aeruginosa expressing IMP-1, efflux+ (MB9798); assay type: cell-based, Pseudomonas aeruginosa; conditions: ratio MITC95 PA_9798/MITC95 PA_9799
property: Efflux ratio

mol	data_value
N#Cc1cccc(-c2ccc(S(=O)(=O)C3CNC3)c(S(N)(=O)=O)c2-c2nn[nH]n2)c1N	16.00
N=C(N)Nc1ccccc1-c1ccc(S(=O)(=O)C2CNC2)c(S(N)(=O)=O)c1-c1nn[nH]n1	16.00
Nc1nc2c(-c3ccc(S(=O)(=O)c4ccccc4)c(S(N)(=O)=O)c3-c3nnn[nH]3)cccc2s1	8.00
NS(=O)(=O)c1c(S(=O)(=O)C2CNC2)ccc(C2CCOCC2)c1-c1nn[nH]n1	63.98
NCCS(=O)(=O)c1ccc(-c2cccc3[nH]c(=O)[nH]c23)c(-c2nnn[nH]2)c1S(N)(=O)=O	2.00
NCCS(=O)(=O)c1ccc(-c2ccc3cccnc3c2)c(-c2nnn[nH]2)c1S(N)(=O)=O.O=C(O)C(F)(F)F	8.00
NC(=O)c1ccc(-c2ccc(S(=O)(=O)C3CNC3)c(S(N)(=O)=O)c2-c2nn[nH]n2)c2nc(N)sc12	0.50

---

target: VIM-1 (Pseudomonas aeruginosa (strain ATCC 15692 / DSM 22644 / CIP 104116 / JCM 14847 / LMG 12228 / 1C / PRS 101 / PAO1)); assay: biochemical; conditions: CCF2-FA substrate, 2 hours at 25° C

compound	IC50 (pM)
NS(=O)(=O)c1c(S(=O)(=O)C2CNC2)ccc(-c2cccn3cncc23)c1-c1nnn[nH]1 [Example 60]	408
NCC(O)CS(=O)(=O)c1ccc(-c2cccc3sc(N)nc23)c(-c2nn[nH]n2)c1S(N)(=O)=O (stereo not shown) [Example 97]	249
Nc1nc2c(-c3ccc(S(=O)(=O)CC4(N)CC4)c(S(N)(=O)=O)c3-c3nn[nH]n3)cccc2s1 [Example 95]	293
NCCS(=O)(=O)c1ccc(-c2cccc3[nH]cnc23)c(-c2nn[nH]n2)c1S(N)(=O)=O [Example 198]	206

---

target: IMP-1 (Serratia marcescens, UniProt P52699); experiment: biochemical; format: biochemical; conditions: CCF2-FA substrate, 2 hours at 25° C; read-out: IMP-1 IC50
Sequence (P52699 whole entry, looked up, species assumed): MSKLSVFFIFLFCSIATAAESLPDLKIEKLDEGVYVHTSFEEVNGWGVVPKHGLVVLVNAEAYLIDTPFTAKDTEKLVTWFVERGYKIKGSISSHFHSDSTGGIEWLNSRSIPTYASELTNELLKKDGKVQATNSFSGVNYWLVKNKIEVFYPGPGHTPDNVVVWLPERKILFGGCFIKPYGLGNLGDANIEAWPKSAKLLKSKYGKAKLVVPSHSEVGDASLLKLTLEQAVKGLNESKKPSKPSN
pIC50: −log10 of the molar value.
Use 1 when the recorded pIC50 is no lower than 9; use -1 when it is lower.

molecule	assigned_label
Nc1ccc(-c2ccc(S(=O)(=O)C3CCNCC3)c(S(N)(=O)=O)c2-c2nn[nH]n2)cn1 [Example 24]	1
NCCNC(=O)c1ccccc1-c1ccc(S(=O)(=O)CCN)c(S(N)(=O)=O)c1-c1nn[nH]n1 [Example 342]	-1
NS(=O)(=O)c1c(S(=O)(=O)C2CNC2)ccc(-c2cncnc2)c1-c1nnn[nH]1.O=C(O)C(F)(F)F [Example 110, 2,2,2-trifluoroacetate]	-1
NS(=O)(=O)c1c(S(=O)(=O)[C@H]2CCNC2)ccc(-c2cccc3nc(C(=O)O)[nH]c23)c1-c1nn[nH]n1 [Example 290]	-1
NS(=O)(=O)c1c(SC2CCNCC2)ccc(-c2ccc(C3CCNCC3)cc2)c1-c1nnn[nH]1 [Example 226]	-1
CS(=O)(=O)c1ccc(-c2cccc3sc(N)nc23)c(-c2nn[nH]n2)c1S(N)(=O)=O [Example 239]	1
CS(=O)(=O)c1ccc(-c2ccc(NS(=O)(=O)C3CC3)cc2)c(-c2nn[nH]n2)c1S(N)(=O)=O [Example 241]	1
NS(=O)(=O)c1c(S(=O)(=O)[C@@H]2CCNC2)ccc(-c2cccc3cn[nH]c23)c1-c1nn[nH]n1 [Example 185]	1
NS(=O)(=O)c1c(S(=O)(=O)C2CNC2)ccc(-c2ccc3ccncc3c2)c1-c1nnn[nH]1.O=C(O)C(F)(F)F [Example 131, 2,2,2-trifluoroacetate]	1
Nc1nc2c(-c3ccc(S(=O)(=O)C[C@@H](N)CO)c(S(N)(=O)=O)c3-c3nn[nH]n3)cccc2[nH]1 [Example 274]	1
N=C(N)Nc1ccccc1-c1ccc(S(=O)(=O)C2CNC2)c(S(N)(=O)=O)c1-c1nn[nH]n1 [Example 221]	-1
